Attribution: the supplement of paper PMC9170038

Each entry below carries its reported apparent KD of MS2 coat protein.
- Tested on: MS2 coat protein
- measurement-protocol: apparent KD of MS2 coat protein; designed switch direction (-1 OFF switch, 1 ON switch): -1; higher = weaker reporter binding
- experimental-setup: Eterna round: R95; input ligand: FMN 200 uM
The answer is to be given in nM; state only the numeric part.

Sample records with apparent KD of MS2 coat protein:
{"columns": ["sequence-text", "assayed-system", "apparent KD of MS2 coat protein, nM"],
 "data": [
  ["AGUAGAUCUACGCUUGCGUGGAUCUGCAAUGCAGGUGUUACAUGAGGAUCACCCAUGUCCUCAUUUGUUCGUCUUAG [JL turnoff v2 99.09] (puzzle: Sensor v3, turn-off variant 2)", "MS2 coat protein", 568],
  ["GGUUGGCGAGGAUAUACAUGAGGAUCACCCAUGUGAGAGAAAGAAGUGAGGAAGAAAAGUAGAAGGUGCUGACG [salish99_ex3_r3_055] (puzzle: Exclusion 3)", "MS2 coat protein", 56.6],
  ["AAAUACAAGCAAAGAUUCUACAUGAGGAUCACCCAUGUGCUCGUCUUAUAAAGUACUAUCACGAAAGUGAUAGUACA [Sensor 3, v1 - 33] (puzzle: Sensor v3, turn-off variant 1)", "MS2 coat protein", 21.3],
  ["CAUACUCAAGUGAGGAUAUAGUCUCGGAUACGGAACUAGAAGGCACAUGAGGAUCACCCAUGUAGAGAGUAAAG [EX-4 Malc #28] (puzzle: Brourd's mod of Exclusion 4)", "MS2 coat protein", 56.6]
]}

Let's switch to this sequence now.
Incoming: What value of measured apparent KD of MS2 coat protein is listed for AGUAACCGUCACGAAAGUGAUGGUUACACAAGCAAUGAAACAUGAGGAUCACCCAUGUCCUCAUUUGCUCGUCUUAU [Sensor 3 - 40] (puzzle: Sensor v3, turn-off variant 2) ?
Outgoing: 25.5

====

Reported values of apparent KD of MS2 coat protein for individual entries
- Tested on: MS2 coat protein
- measurement-protocol: apparent KD of MS2 coat protein; higher = weaker reporter binding
- experimental-setup: Eterna round: R107; input ligand: theophylline 2 mM
Write down the numeric answer in nM and omit the unit.

Recorded results for 5 sequences are shown here.
{"columns": ["sequence-text", "assayed-system", "apparent KD of MS2 coat protein / nM"],
 "data": [
  ["AAUACCGGUCCUCGAAGGUGAUCCUCAUAACGAGGACCGGUACGGCCGCCACUCGAUAACAUGAGGAUCACCCAUGUAAUAAUAA [|T'-M'-Trp-Ms2|_Design6]", "MS2 coat protein", 235],
  ["ACCGCAUCCGUAUAGGAUGCGGCCCAUGAAGGAGCGUGGGAAACCACAGGUAGGUCGCAUGGAUUACAUGAGGAUCACCCAUGUG [Skyfall]", "MS2 coat protein", 706],
  ["AUAAUGAGUGGUGGAUAGGUGAUCCUCUUACGAGGACCGGUACGGCCGCCACUCGAUAACAUGAGGAUCACCCAUGUAAUAAUAA [|T'-M'-Trp-Ms2|_Design19]", "MS2 coat protein", 18.9],
  ["GGCAGUCAUAGGAGGGCAAAUAUACUCGAAGGAGCGUCAUAGUAGGCAGGUAGGUCGCGAGACAUGAGGAUCACCCAUGUAGAGA [wwzmullin]", "MS2 coat protein", 125],
  ["CGGUCGGUCGGUCGGUGAUUAUGGGAUGAAGGAGCGUGGGAAGCUACAGGUAGGUCGCAUCCGAAACAUGAGGAUCACCCAUGUU [#21 Same State - Arginine A]", "MS2 coat protein", 21.3]
]}

Incoming: Entry AACAUACAAUAUUAGGUGGAUAUAAGGCGGCGAGGACCGGUACGGCCGCCACUCGCGUACAUGAGGAUCACCCAUGUCUGAAACU [Same State - Tryptophan A (Freestyle 4)] : reported apparent KD of MS2 coat protein = ?
Outgoing: 24.3

====

Catalogue of apparent KD of MS2 coat protein readings, one per entry.
- Tested on: MS2 coat protein
- measurement-protocol: apparent KD of MS2 coat protein; designed switch direction (-1 OFF switch, 1 ON switch): -1; higher = weaker reporter binding
- experimental-setup: input ligand: FMN 200 uM
State the result as a value with its unit after it.

Before answering, review these 4 worked examples.
{"columns": ["sequence-text", "assayed-system", "recorded-result"],
 "data": [
  ["AUCAGCUCGUGAGGAUAUGAACAUGAGGAUCACCCAUGUAAGAUCAAGCUGCUUCGGCAGCAAGUUCAGAAGGCACGAGCUGAU [ENG2/10-A3] (Eterna round: R96, puzzle: Exclusion NG 2)", "MS2 coat protein", "182 nM"],
  ["AAACAGCAAGGAUAUACGGGCUGUGCUUUUCAUAUCAUACAACAUGAGGAUCACCCAUGUAGAAGGUGCAACAA [Ex2 #3] (Eterna round: R97, puzzle: Exclusion 2)", "MS2 coat protein", "146 nM"],
  ["AUGAAGUAAGGAUAUUAUCGCGGGCAGAGGCCCAGCUCAUAUGAGAAGGUACAUGAGGAUCACCCAUGUCCUCU [Eternabot (L2) Solution 72] (Eterna round: R97, puzzle: Exclusion 4)", "MS2 coat protein", "25.9 nM"],
  ["UUAAUUAAUUAAGGCUGAAGAUCACAUGAGGAUCACCCAUGUAAGGAUAUCAGCUCGAUUAGAGCUGAGAAGGUACAUGCAGCC [ExNG3/18-B1] (Eterna round: R96, puzzle: Exclusion NG 3)", "MS2 coat protein", "53.9 nM"]
]}

Would you kindly look at the next entry?
Incoming: What measured apparent KD of MS2 coat protein goes with GAAAACGUAGGAUAUUAAUACUUAUACAUGAGGAUCACCCAUGUUUGGUGGGUCAAAGAAUGAGAAGGGCGAUGAA [EX5 #10] (Eterna round: R97, puzzle: Exclusion 5) ?
Outgoing: 261 nM

====

- Tested on: MS2 coat protein
- measurement-protocol: apparent KD of MS2 coat protein; designed switch direction (-1 OFF switch, 1 ON switch): -1; higher = weaker reporter binding
- experimental-setup: input ligand: FMN 200 uM
assay-readout: apparent KD of MS2 coat protein (nM)
Report only the number, with the unit nM understood.

{"columns": ["sequence-text", "apparent KD of MS2 coat protein [nM]"],
 "data": [
  ["GUCAUCAAACAUGGGUUAAACAUGAGGAUCACCCAUGUAUACAAGUUUUUUGCUCGUCUUAUAAUAAGUUUGAUGAC [Antenna 7 - Jieux - Sensor, turn-off variant 1] (Eterna round: R97, puzzle: Sensor, turn-off variant 1)", 59.9]
]}

Lab note: next sequence to report on.
Incoming: Look up apparent KD of MS2 coat protein for this sequence: AGAGUGCUGCGAGGAUAUACAUGAGGAUCACCCAUGUAAAAGUGUGAGGCAAAGCCUCACACGAAGUAGAAGGCGCAGUACUCA [Mat - Exclusion NG 2 - Mod of JL - D34] (Eterna round: R96, puzzle: Exclusion NG 2)
Outgoing: 12.8

====

- Tested on: K4 kissing-loop RNA reporter;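 also: bound reporter read as fluorescence of individual clusters on recovered sequencing chips by microscopy, with normalized cluster intensities fitted with a binding model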
- measurement-protocol: apparent KD of K4 kissing-loop reporter; higher = weaker reporter binding
- experimental-setup: Eterna round: R107; input ligand: tryptophan 2.4 mM
We begin with a simple list: items and their reported apparent KD of K4 kissing-loop reporter.
Output spec: scalar in nM, unitless text.

{"columns": ["sequence-text", "assayed-system", "apparent KD of K4 kissing-loop reporter, nM"],
 "data": [
  ["AAGUGUCAUUAGACACAGACUACAAUACACUAGGAUAUGCUGAUAAGCAGAAGGAGUGAUGUUCCUUUCAAGUAGUCAAUUAAAU [FmnAX 21 Mat Inspired #SwitchBubble #StaticStem #K4Late]", "K4 kissing-loop RNA reporter", 140],
  ["AGGCACGAGCAAGGAUAUCGAGUAGAGUGAUGUUCUGCCUGGGUUGGCGCGCAAGGGCCUUCCCAGCGAGAAGGUGCUCGUGCCU [#2 Same State - FMN A Attempt #11 (HarryS)]", "K4 kissing-loop RNA reporter", 634],
  ["AGGUCACCACUACAGUGAUGUUGUAGGGAGCAGGAUAUGCAGAAAUGCAGAAGGGCUCGCUCCCGGUGACCGAAUGAAACAUUCA [Omei KL FMN A SS A v6]", "K4 kissing-loop RNA reporter", 282],
  ["AAAGAGUCACUCGAAGCUAUCGAAGAUAGGCGAGGACCGGUACGGCCGCCACUCGGAGUGAUGUUCCGAAGACUGUAAAAUAAAA [MatMod 12 - Jieux - Exclusion - Tryptophan A]", "K4 kissing-loop RNA reporter", 295],
  ["AAAAGCCUACAGGAUACCAGCCGAAUACUAAAAGGCUGGAGUGAUGUUCCAGCUUGCCGCGGCCCUUGGCAGCCUAGCUGGGUGA [Soatriti]", "K4 kissing-loop RNA reporter", 286]
]}

Incoming: Look up apparent KD of K4 kissing-loop reporter for this sequence: GCGCGUGUUAAAGGAUAUAGCAGGUGAUACAAGAAAGUGAGUGAUGUUUAUGUAGAUGAUGAUAUGUUAGAAGGUUAACACGCGC [abcdefghijklmnopqr]
Outgoing: 629

Incoming: If you can, please state the reported apparent KD of K4 kissing-loop reporter value of GGAUCCACCAGUGAUGUUGGAGAAAACUUCAAGGAUAUGACGAAAGUCAGAAGGUGGUAGACUGGACAAAGUCCGGUGGGAUCCA [FmnA10 U29+G78] .
Outgoing: 198

Incoming: Which apparent KD of K4 kissing-loop reporter reading was recorded for the sequence AGCCGAAAGGCGAGUGCUGUCACUCCGGAAGGAGCGCCCAAAAGGGCAGGUAGGUCGCCGGAGUGAUGUUCCGGUGCAGCACUCA [Omei KL Arginine A Exc B v3] ?
Outgoing: 482

Incoming: What apparent KD of K4 kissing-loop reporter value was documented for this sequence, AGGGUAAGGCGUUAACAUGACACCUGGGAAGGAGCGCGGUACACCGCAGGUAGGUCGCCCAGUGAUGUUGGGCGUAAGUAUGAGU [KL-XArg-A22] ?
Outgoing: 137

Incoming: I would be grateful if you could share the reported apparent KD of K4 kissing-loop reporter for AUGGUUGUCGUAGGAUAUGUAGGUAAUUCCUAUAGCAGUGAUGUUGCUAAUAUCUUGGAAGAAGGAACAGAAGGACGAUAACCAC [KL-SSFMN-B1 #analogue] .
Outgoing: 106

Incoming: Value lookup for apparent KD of K4 kissing-loop reporter; key = AGAGGUCCCAGUGAUGUUGGUGCGUUUGGUCGAGGACCGGUACGGCCGCCACUCGUUCAUAGUAAGCCCUCUUUAGUGUUUCUAA [theeternabot_sameState_KL_Trp_A_9]
Outgoing: 186

Incoming: What value of apparent KD of K4 kissing-loop reporter has been recorded for this entry: ACAGGAUCGAAAGAUCCUGAGCAGUCAAACCGAGGACCGGUACGGCCGCCACUCGGAGUGAUGUUCCGAAGACUGCAAAAUAAAA [#SwitchBubble 1]
Outgoing: 334

Incoming: Given the sequence UUAGUCAGAUUAUUAUUAGCCUGCGAGACUAAGGAUAUCCGAAUUCGGAGAAGGUAGUGAUGUUACUUUGGCAGGCACUGACAUU [AK8 Exc FMN A] , what is its reported apparent KD of K4 kissing-loop reporter?
Outgoing: 576
